# TARGET OF ASSAY: T1, AtGRP2-CSD1-90 F48A (Arabidopsis thaliana, UniProt Q41188 1-90, F48A)
# T1 sequence: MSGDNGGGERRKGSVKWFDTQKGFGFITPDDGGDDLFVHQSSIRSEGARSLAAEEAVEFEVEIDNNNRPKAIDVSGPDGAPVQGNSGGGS
# ASSAY OVERVIEW: fluorescence anisotropy; 20 mM sodium phosphate pH 6.5, 50 mM NaCl, 25 C (fluorescence); NMR titrations in the same buffer plus 250 uM PMSF, 3 mM NaN3, 5% D2O, 298 K
# RECORDED CONDITIONS: protein: recombinant; tags: N-terminal Trx(6 aa)-His6-TEV tag, cleaved; label: 5'-rhodamine
RECORDED ENDPOINT: Kd (µM)
Provide the reading as a plain figure in µM.

Task item: What value of Kd has been recorded for this entry: TTTTTTT (ssDNA) [Rho-T7]
Reply: 38.6
